Taken from PubChem BioAssay (EPA / NIEHS).

- Read-out: Matrix Metallopeptidase 1 (MMP1), MMP1 (gene 4312)
- protocol: BSK_hDFCGF_MMP1: BioMAP Diversity Plus: hDFCGF Assay for Matrix Metallopeptidase 1 (MMP1) Biomarker Activity (AID 2283064)
- test settings: primary human foreskin fibroblasts; actives raise or lower the signal
Active and inactive are the calls of the source. The calls were made as follows: active = hit-call score of the fitted dose curve at least 0.9, where 1 is the maximum; inactive = score below 0.9.
Write down the outcome that applies. Available outcomes: active, inactive

Solved cases (10 shown):
# compound, cat
measured = [
    ("O=S(=O)(O)c1ccc(N=Nc2c(O)ccc3cc(S(=O)(=O)O)ccc23)cc1", "inactive"),
    ("Cn1cc[nH]c1=S", "inactive"),
    ("Cc1cccc(O)c1C", "inactive"),
    ("O=C1CN(N=Cc2ccc([N+](=O)[O-])o2)C(=O)N1", "inactive"),
    ("Cn1c(=O)c2[nH]cnc2n(C)c1=O", "inactive"),
    ("S=P(N1CC1)(N1CC1)N1CC1", "inactive"),
    ("CCCCCCCC1CCC(=O)O1 (stereo not given)", "inactive"),
    ("OC(O)(C(F)C(O)(O)C(F)(F)F)C(F)(F)F", "inactive"),
    ("C[Si](C)(C)C(F)(F)C(F)(F)C(F)(F)F", "inactive"),
    ("Cc1nccn1-c1ccc(Sc2cccc(C3(C(N)=O)CCOCC3)c2)cc1", "active"),
]

For c1ccc(C(O[C@@H]2CCCN(CCc3ccc4c(c3)OCO4)C2)c2ccccc2)cc1 , what call appears in the results of this test?
inactive

For CCCC(CCC)C(=O)O , what call appears in the results of this test?
inactive

For O=C(O)[C@H](O)[C@@H](O)C(=O)O , what call appears in the results of this test?
inactive

For OC[C@H]1O[C@@](CO)(O[C@H]2O[C@H](CO)[C@@H](O)[C@H](O)[C@H]2O)[C@@H](O)[C@@H]1O , what call appears in the results of this test?
inactive

----------
- Read-out: Insulin Like Growth Factor 1 (IGF1), IGF1 (gene 3479)
- protocol: LTEA_HepaRG_IGF1: Life Technologies and Expression Analysis (LTEA) Assay for Insulin Like Growth Factor 1 (IGF1) using HepaRG (AID 2283506)
- test settings: mRNA level, 48 h; actives raise or lower the signal
The source made the active and inactive calls. How the source made its calls: active means hit-call score of the fitted dose curve at least 0.9, where 1 is the maximum; inactive means score below 0.9.
observed property: AC50

# compound, measurement
measured = [
    ("CCCc1ccccc1", "inactive"),
    ("O=C(O)c1cccc(C(=O)O)c1", "inactive"),
    ("CC(C)C(=O)Nc1ccc([N+](=O)[O-])c(C(F)(F)F)c1", "37.8 µM (active)"),
    ("CCc1ccc(O)c(C(C)(C)C)c1", "inactive"),
    ("CCCCCCCCCC", "inactive"),
]

Look up AC50: NC(=O)NN=Cc1ccc([N+](=O)[O-])o1
9.92 µM (active)

Look up AC50: CC1(C)C(=O)N(Cl)C(=O)N1Cl
inactive

Look up AC50: CCCC(CCC)C(=O)O
inactive

Look up AC50: c1ccc2c(c1)-c1cccc3c1c-2cc1ccccc13
16 µM (active)

Look up AC50: CC[C@H](C)C(=O)O[C@H]1C[C@H](O)C=C2C=C[C@H](C)[C@H](CC[C@@H](O)C[C@@H](O)CC(=O)O)[C@H]21
inactive

----------
- protocol: BSK_3C_VCAM1: BioMAP Diversity Plus: 3C Assay for Vascular cell adhesion molecule 1 (VCAM1) Biomarker Activity (AID 2282999)
- test settings: BioMAP 3C HUVEC, VCAM1 ELISA, cytokine-stimulated; actives raise or lower the signal
Active and inactive are the calls of the source. The calls were made as follows: active = hit-call score of the fitted dose curve at least 0.9, where 1 is the maximum; inactive = score below 0.9.

# structure smiles string, AC50
records = [
    ("CCCCCCCCCCCCCCO", "32.8 µM (active)"),
    ("O=S(=O)(O)CCC(F)(F)C(F)(F)C(F)(F)C(F)(F)C(F)(F)C(F)(F)F", "inactive"),
    ("O=C(O)[C@H](O)[C@@H](O)C(=O)O", "inactive"),
    ("NC(N)=O", "inactive"),
]

----------
- Read-out: Alpha-fetoprotein (AFP) gene, AFP (gene 174)
- protocol: LTEA_HepaRG_AFP: Life Technologies and Expression Analysis (LTEA) Assay for Alpha-fetoprotein (AFP) gene using HepaRG (AID 2283472)
- test settings: mRNA level, 48 h; actives raise or lower the signal
- Protocol: It is a marker of Undifferentiated hepatocyte.Data from the assay component LTEA_HepaRG_AFP was analyzed into 1 endpoint. This assay endpoint, LTEA_HepaRG_AFP, was analyzed with bidirectional fitting relative to DMSO as the negative control and baseline of activity. Using a type of inducible reporter, measures of mRNA induction for gain or loss-of-signal activity can be used to understand regulation of transcription factor activity. […]
Activity calls are given as the source filed them. Rule for the calls: active = hit-call score of the fitted dose curve at least 0.9, where 1 is the maximum; inactive = score below 0.9.
Write down the outcome that applies. Available outcomes: true (1) for active, false (0) for inactive

Solved cases (3 shown):
# structure smiles string, cat
data = [
    ("CC[C@H](C)C(=O)O[C@H]1C[C@H](O)C=C2C=C[C@H](C)[C@H](CC[C@@H](O)C[C@@H](O)CC(=O)O)[C@H]21", "false (0)"),
    ("OCc1ccccc1", "false (0)"),
    ("NC(=O)NN=Cc1ccc([N+](=O)[O-])o1", "false (0)"),
]

For OCCNCCO , what call appears in the results of this test?
true (1)

For CC(C)c1nnc2ccc(-c3ocnc3-c3cc(F)ccc3F)cn12 , what call appears in the results of this test?
true (1)

For COc1cc(C(C)C)c2c(c1)S(=O)(=O)N(COc1cc(=O)n3cccc(OCCN4CCCCC4)c3n1)C2=O , what call appears in the results of this test?
true (1)

For CCn1nc(C)c2c1C(=O)NCC(c1ccc(O)cc1)=N2 , what call appears in the results of this test?
false (0)

For c1ccc2cc3ccccc3cc2c1 , what call appears in the results of this test?
false (0)

For CCN(CC)C(=S)SSC(=S)N(CC)CC , what call appears in the results of this test?
false (0)

For CC1(C)C(=O)N(Cl)C(=O)N1Cl , what call appears in the results of this test?
false (0)

----------
- Read-out: solute carrier (SLCO1B1), SLCO1B1 (gene 10599)
- protocol: LTEA_HepaRG_SLCO1B1: Life Technologies and Expression Analysis (LTEA) Assay for solute carrier (SLCO1B1) using HepaRG (AID 2283530)
- test settings: mRNA level, 48 h; actives raise or lower the signal
Activity calls are given as the source filed them. How the source made its calls: active means hit-call score of the fitted dose curve at least 0.9, where 1 is the maximum; inactive means score below 0.9.
Write down the outcome that applies. Available outcomes: true (1) for active, false (0) for inactive

# compound, cat
measured = [
    ("CCCCOC(=O)c1ccccc1", "false (0)"),
    ("COc1cc2c(c(OC)c1OC)-c1ccc(OC)c(=O)cc1[C@@H](NC(C)=O)CC2", "true (1)"),
]

For O=C(NO)C1(NS(=O)(=O)c2ccc(Oc3ccc(F)cc3)cc2)CCOCC1 , what call appears in the results of this test?
false (0)

For NC(=O)N1c2ccccc2C=Cc2ccccc21 , what call appears in the results of this test?
false (0)

For CC(C)CC(C)O (stereo not given) , what call appears in the results of this test?
false (0)

For CC(C)CCCCCCOC(=O)C1CCCCC1C(=O)OCCCCCCC(C)C (stereo not given) , what call appears in the results of this test?
false (0)

For CCN(CC)C(=S)SSC(=S)N(CC)CC , what call appears in the results of this test?
false (0)

For O=S(=O)(O)c1ccc(N=Nc2c(O)ccc3cc(S(=O)(=O)O)ccc23)cc1 , what call appears in the results of this test?
false (0)

For CC[C@H](C)C(=O)O[C@H]1C[C@H](O)C=C2C=C[C@H](C)[C@H](CC[C@@H](O)C[C@@H](O)CC(=O)O)[C@H]21 , what call appears in the results of this test?
false (0)

For Cn1cc[nH]c1=S , what call appears in the results of this test?
false (0)

For NC(=O)NN=Cc1ccc([N+](=O)[O-])o1 , what call appears in the results of this test?
false (0)

For NNC(=O)c1ccncc1 , what call appears in the results of this test?
false (0)

For CCOc1ccc2[nH]cc(C(=O)NCc3ccccc3)c(=O)c2n1 , what call appears in the results of this test?
false (0)

For CCCCCCCCN(C)C , what call appears in the results of this test?
false (0)

For CCCCN1C(=O)[C@@H]([C@H](O)C2CCCCC2)NC(=O)C12CCN(Cc1ccc(Oc3ccc(C(=O)O)cc3)cc1)CC2 , what call appears in the results of this test?
true (1)

For CCn1nc(C)c2c1C(=O)NCC(c1ccc(O)cc1)=N2 , what call appears in the results of this test?
false (0)

For c1ccc2c(c1)-c1cccc3c1c-2cc1ccccc13 , what call appears in the results of this test?
true (1)

For CCCCCCCCCCCCCCCCOS(=O)(=O)O , what call appears in the results of this test?
false (0)
